B1: library; a variant is named by its letters at N, in order (parent)
chain: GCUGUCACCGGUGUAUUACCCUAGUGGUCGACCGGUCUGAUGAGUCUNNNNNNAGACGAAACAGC

# Variants of: B1
# ASSAY INFO: normalized RNA/DNA level without ligand (relative to sTRSVctl = 100) (log10 (% of sTRSVctl)); ligand: hypoxanthine (xanthine aptamer); higher = less ribozyme self-cleavage, higher mRNA level
# RUN PARAMETERS: HEK293T, reporter: mCherry (pCS4076), ligand present: no
For each of the variants below, state its normalized RNA/DNA level without ligand (log10).
Response field accepts a number only; no unit should be typed.

## Task normalized RNA/DNA level without ligand (log10) for UUUAAU ?
## Result 1.86

## Task Next record, please: GCACAA
## Result 1.75

## Task Next record, please: GACACA
## Result 1.85

## Task Next record, please: UUUACA
## Result 1.91

## Task Next record, please: UUGGCG
## Result 1.87

## Task Next record, please: GCCUCG
## Result 1.6

## Task Next record, please: UACACU
## Result 1.9

## Task Next record, please: CCAAGG
## Result 1.6

## Task Next record, please: CAACUC
## Result 1.96

## Task Next record, please: UGAUGU
## Result 1.67

## Task Next record, please: UUAAAU
## Result 1.83

## Task Next record, please: UUCAAG
## Result 1.72

## Task Next record, please: ACUCGA
## Result 1.74

## Task Next record, please: CCAUUG
## Result 1.8

## Task Next record, please: AGUCGA
## Result 1.61

## Task Next record, please: AUUGCA
## Result 1.8

## Task Next record, please: ACUCGG
## Result 1.44

## Task Next record, please: UUGAAG
## Result 1.64

## Task Next record, please: GAGCAA
## Result 1.58

## Task Next record, please: CUUGUG
## Result 1.88

## Task Next record, please: GGCACU
## Result 1.99

## Task Next record, please: UCGAGG
## Result 1.59

## Task Next record, please: UAGUAC
## Result 1.81

## Task Next record, please: AUCGUU
## Result 1.87

## Task Next record, please: UUGAUU
## Result 1.9

## Task Next record, please: AUUACU
## Result 1.82

## Task Next record, please: UAGCCC
## Result 1.88

## Task Next record, please: GAGUUG
## Result 1.14

## Task Next record, please: ACAACG
## Result 1.49

## Task Next record, please: AUACUA
## Result 1.77

## Task Next record, please: AAACUA
## Result 1.77

## Task Next record, please: UCAGGC
## Result 1.96

## Task Next record, please: CCCUGG
## Result 1.8

## Task Next record, please: AGGAUU
## Result 1.83

## Task Next record, please: GCGCGG
## Result 1.3

## Task Next record, please: GGGGAA
## Result 1.66

## Task Next record, please: CUAGAU
## Result 1.79

## Task Next record, please: GACAAU
## Result 1.81

## Task Next record, please: AUUUGU
## Result 1.64

## Task Next record, please: GUGCUG
## Result 1.58

## Task Next record, please: GUUUCC
## Result 2.03

## Task Next record, please: AAAGUG
## Result 1.31

## Task Next record, please: CUUCUC
## Result 2.03

## Task Next record, please: CCCAGU
## Result 1.89

## Task Next record, please: GGAAUA
## Result 1.78

## Task Next record, please: CUAAAA
## Result 1.81

## Task Next record, please: GUGCAU
## Result 1.74

## Task Next record, please: UGAAUU
## Result 1.9

## Task Next record, please: AACUCU
## Result 1.9

## Task Next record, please: GACUAA
## Result 1.8

## Task Next record, please: CACGUC
## Result 1.97

## Task Next record, please: UGGUUA
## Result 1.87

## Task Next record, please: UAUCAA
## Result 1.81

## Task Next record, please: CGAUCA
## Result 1.7

## Task Next record, please: CGUGCU
## Result 1.9

## Task Next record, please: CGGGAC
## Result 1.73

## Task Next record, please: GAUUGU
## Result 1.77

## Task Next record, please: CACACC
## Result 1.93

## Task Next record, please: UUUAGA
## Result 1.75

## Task Next record, please: AGCCAG
## Result 1.59

## Task Next record, please: UGAUGC
## Result 1.85

## Task Next record, please: ACCGUG
## Result 1.45

## Task Next record, please: UUACCA
## Result 1.87

## Task Next record, please: CCACCC
## Result 1.93

## Task Next record, please: GGGUAC
## Result 1.68

## Task Next record, please: GGUAAG
## Result 1.25

## Task Next record, please: AGUAAA
## Result 1.73

## Task Next record, please: UGCAUC
## Result 2.04

## Task Next record, please: UGUCCA
## Result 1.88

## Task Next record, please: UCAACC
## Result 1.95

## Task Next record, please: UUGUGG
## Result 1.89

## Task Next record, please: UUCUCC
## Result 1.99

## Task Next record, please: AGGGGG
## Result 1.53

## Task Next record, please: UAGGCG
## Result 1.67

## Task Next record, please: GUGGUG
## Result 1.33

## Task Next record, please: AAUAUU
## Result 1.88

## Task Next record, please: GGUGAC
## Result 1.8

## Task Next record, please: UCAAUA
## Result 1.76

## Task Next record, please: GAACAG
## Result 1.42

## Task Next record, please: GAGUAG
## Result 1.13

## Task Next record, please: ACGAAU
## Result 1.19

## Task Next record, please: ACGCAU
## Result 1.42

## Task Next record, please: GAAGAA
## Result 1.68

## Task Next record, please: UACCGU
## Result 1.72

## Task Next record, please: AUCAAG
## Result 1.5

## Task Next record, please: UGACGC
## Result 1.83

## Task Next record, please: UCGUGG
## Result 1.59

## Task Next record, please: UAGCAC
## Result 1.8

## Task Next record, please: UUAACC
## Result 1.92

## Task Next record, please: GUAGUC
## Result 1.81

## Task Next record, please: UUGCCA
## Result 1.94
